# Tgt: NMDA receptor-ionophore complex (polyamine-sensitive ifenprodil binding site)
# Assay Name: NMDA assay: competitive binding against [125I]ifenprodil in rat cortical membranes
# Condition Details: 30 min, 20° C., pH 7.7
pKi: −log10 of the molar value.
Assay Endpoint: pKi

| Compound | Tgt | Recorded Result |
| --- | --- | --- |
| COc1ccc(OC)c(C(O)CN2CCN(Cc3cc(C(C)(C)C)c(O)c(C(C)(C)C)c3)CC2)c1 (stereo not shown) | NMDA receptor-ionophore complex (polyamine-sensitive ifenprodil binding site) | 5.07 |
| CC(C)(C)c1cc(CN2CCN(CCC(O)c3ccc(Cl)cc3)CC2)cc(C(C)(C)C)c1O (stereo not shown) | NMDA receptor-ionophore complex (polyamine-sensitive ifenprodil binding site) | 4.77 |
| C[C@H]([C@H](O)c1ccc(O)cc1)N1CCN(Cc2cc(C(C)(C)C)c(O)c(C(C)(C)C)c2)CC1 (relative stereo) [2 ((R, R)-racemic)] | NMDA receptor-ionophore complex (polyamine-sensitive ifenprodil binding site) | 4.80 |

I. CC(C)(C)c1cc(CN2CCN(CC(O)c3ccc(Br)cc3)CC2)cc(C(C)(C)C)c1O (stereo not shown)
II. CC(C)(C)c1cc(CN2CCN(CC(O)c3ccc(Cl)s3)CC2)cc(C(C)(C)C)c1O (stereo not shown)
// pick larger pKi from pair: I vs II Please indicate the selected item by its label.
I
(I: 5.15, II: 4.71)
